B1: Retinoic acid receptor RXR-alpha, residues 132 to 208; numbered along this chain, P19793 (parent)
chain: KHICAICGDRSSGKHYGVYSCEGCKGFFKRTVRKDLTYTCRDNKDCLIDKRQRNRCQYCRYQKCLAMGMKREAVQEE

Variants of: B1
Test: abundance fitness (aPCA) (normalised: wild type 0, dead -1); higher = more abundant; growth selection in yeast, the domain comes from the species named
Settings: Homo sapiens
Kindly supply the reported abundance fitness values for the records listed here.

Reported abundance fitness for Y38Q was -0.041

Briefly, abundance fitness measured for C46N : -0.22

Item: R30G | abundance fitness: -0.087

# abundance fitness (variant: S11V ) is -0.179

Query R10V yields abundance fitness of -0.199

abundance fitness recorded for this variant, V32Q , is -0.017

Measured abundance fitness, C21Q : -1.02

R30I yielded abundance fitness of -0.352

abundance fitness recorded for this variant, E22R , is -0.002

Noted for I3V : its abundance fitness reads -0.3

Documented abundance fitness of C40P : -0.591

Field abundance fitness (entry C4W ) reads -1.3

Value of abundance fitness reported for the variant H15Y is -0.05

The recorded abundance fitness for S11Y is -0.096

The reported abundance fitness of the variant K29H was -0.074

Lab book: abundance fitness of K44S noted as -0.011

Y19E yielded abundance fitness of -0.047

// field: abundance fitness; key: N43V ; value = 0.013

Summary for this variant, A5V : abundance fitness is -0.054

For record C4H the listed abundance fitness is -0.512

Recorded result, C7M , abundance fitness: -0.867

Lab note: C24G gave abundance fitness of -0.945

The recorded abundance fitness for entry S20C equals 0.049

Value of abundance fitness reported for the variant K50M is 0.043

Query C40M yields abundance fitness of -0.621

Sure, the documented abundance fitness for R30S is -0.158

// recorded abundance fitness for D9L : -0.708

Kindly note the recorded abundance fitness for Y16F , which is 0.06

The measured abundance fitness associated with R41F reads 0.032

Data point: V18E ; abundance fitness = 0.01

abundance fitness measured on I48Q = 0.21

For reference, reported abundance fitness for T39R stands at 0.008

Record L47H . Reported abundance fitness: -0.016

variant Y16E , abundance fitness observed: 0.078

abundance fitness for D9G is -0.166

What the record says about C4Y : abundance fitness is -0.875

Summary for this variant, K14D : abundance fitness is 0.018

The variant listed as G13N has a reported abundance fitness of 0.048

Measured abundance fitness of T37K : 0.066

# abundance fitness of C40T = -0.643

response.value for I3N (field: abundance fitness) = -0.001

abundance fitness in this record for T37M : -0.147

# abundance fitness of F28K = -1.13

Form field abundance fitness, entry T39Y : 0.006

Record E22G , field abundance fitness: 0.031

Just so you know, measured abundance fitness for V18M came out at -0.147

Ref: the Human Domainome abundance scans (Beltran et al. 2025)
